# experiment: refractive index (Na D-line) (dimensionless)
# particulars: 298.15 K; 101.33 kPa; Liquid; Standard Abbe refractometry
Below, each entry is listed alongside its reported refractive index.
test readout: refractive index

compound="CCCCCC(=O)OC [methyl hexanoate]" value_observed=1.4048
compound="CCCCC(=O)OC [methyl pentanoate]" value_observed=1.3971
compound="CCCC(=O)OC [methyl butanoate]" value_observed=1.3847
compound="CCC#N [propanenitrile]" value_observed=1.36368

----------
# particulars: 298.15 K; 101.33 kPa; Liquid
test readout: mass density (kg/m3)

molecule="CCCC(=O)OC [methyl butanoate]" test_readout="mass density" unit_string=kg/m3 value_observed=892.16
molecule="CCCCCC(=O)OC [methyl hexanoate]" test_readout="mass density" unit_string=kg/m3 value_observed=879.47
molecule="CCCCC(=O)OC [methyl pentanoate]" test_readout="mass density" unit_string=kg/m3 value_observed=884.8
molecule=CCC#N test_readout="mass density" unit_string=kg/m3 value_observed=776.85
